Test system: MCF-7 human mammary carcinoma cells
Experiment: Drug resistance, viable cell number (Coulter Counter)
Assay type: cell-based
Settings: Homo sapiens, MCF7; MCF-7 cells, drug alone
PROPERTY MEASURED: IC50 (nM)
Supply the numeric figure in nM, leaving out any unit text.

Recorded results for 3 compounds are shown here.
CC[C@]1(O)C[C@H]2CN(CCc3c([nH]c4ccccc34)[C@@](C(=O)OC)(c3cc4c(cc3OC)N(C=O)[C@H]3[C@@](O)(C(=O)OC)[C@H](OC(C)=O)[C@]5(CC)C=CCN6CC[C@]43[C@@H]65)C2)C1 [Vincristine]    30
COc1cccc2c1C(=O)c1c(O)c3c(c(O)c1C2=O)C[C@@](O)(C(=O)CO)C[C@@H]3O[C@H]1C[C@H](N)[C@H](O)[C@H](C)O1 [Doxorubicin]    30
CN(Cc1cnc2nc(N)nc(N)c2n1)c1ccc(C(=O)N[C@@H](CCC(=O)O)C(=O)O)cc1 [Methotrexate]    20

Consider the record given below.
CC(=O)O[C@H]1C(=O)[C@@]2(C)[C@H]([C@H](OC(=O)c3ccccc3)[C@]3(O)C[C@H](OC(=O)[C@H](O)[C@@H](NC(=O)c4ccccc4)c4ccccc4)C(C)=C1C3(C)C)[C@]1(OC(C)=O)CO[C@@H]1C[C@@H]2O [Taxol] has a reported IC50 of 350

* * *

System: MCF-7 cells infected with Has2, emmprin or β-galactosidase adenovirus
Experiment: Doxorubicin resistance of recombinant adenovirus-infected MCF-7 cells
Format: cell-based, human
Details: Homo sapiens, MCF7, 48 h, Has2 adenovirus-infected MCF-7 cells, 48 h
PROPERTY MEASURED: pIC50
// pIC50 is dimensionless: -log10 of concentration (M)

COc1cccc2c1C(=O)c1c(O)c3c(c(O)c1C2=O)C[C@@](O)(C(=O)CO)C[C@@H]3O[C@H]1C[C@H](N)[C@H](O)[C@H](C)O1 [Doxorubicin] has a reported pIC50 of 6.68

* * *

Tested on: MCF-7 cells infected with Has2, emmprin or β-galactosidase adenovirus
Assay: Doxorubicin resistance of recombinant adenovirus-infected MCF-7 cells
Format: cell-based, human
Settings: Homo sapiens, MCF7, 48 h, uninfected MCF-7 cells, 48 h
Method: Untreated MCF-7 cells or cells infected overnight with a recombinant Has2 adenovirus or a control β-galactosidase adenovirus (β-gal) were washed, then treated in culture for 48 h with 1-1000 nM doxorubicin, followed by analysis of cell number. Cells were treated in culture for 48 h with 10-1000 nM doxorubicin in the presence or absence of 100 μg/ml o-HA and analyzed as in FIG. 16A. […]
PROPERTY MEASURED: pIC50
// pIC50 is dimensionless: -log10 of concentration (M)

COc1cccc2c1C(=O)c1c(O)c3c(c(O)c1C2=O)C[C@@](O)(C(=O)CO)C[C@@H]3O[C@H]1C[C@H](N)[C@H](O)[C@H](C)O1 has a reported pIC50 of 7.74
